biological target: DDR1 (Homo sapiens); construct: purchased Eurofins DiscoverX KINOMEscan (scanTK); assay: KINOMEscan ScanTK; assay type: binding; settings: @1000nM, read-out: %Control
Sequence (Q08345 19-913): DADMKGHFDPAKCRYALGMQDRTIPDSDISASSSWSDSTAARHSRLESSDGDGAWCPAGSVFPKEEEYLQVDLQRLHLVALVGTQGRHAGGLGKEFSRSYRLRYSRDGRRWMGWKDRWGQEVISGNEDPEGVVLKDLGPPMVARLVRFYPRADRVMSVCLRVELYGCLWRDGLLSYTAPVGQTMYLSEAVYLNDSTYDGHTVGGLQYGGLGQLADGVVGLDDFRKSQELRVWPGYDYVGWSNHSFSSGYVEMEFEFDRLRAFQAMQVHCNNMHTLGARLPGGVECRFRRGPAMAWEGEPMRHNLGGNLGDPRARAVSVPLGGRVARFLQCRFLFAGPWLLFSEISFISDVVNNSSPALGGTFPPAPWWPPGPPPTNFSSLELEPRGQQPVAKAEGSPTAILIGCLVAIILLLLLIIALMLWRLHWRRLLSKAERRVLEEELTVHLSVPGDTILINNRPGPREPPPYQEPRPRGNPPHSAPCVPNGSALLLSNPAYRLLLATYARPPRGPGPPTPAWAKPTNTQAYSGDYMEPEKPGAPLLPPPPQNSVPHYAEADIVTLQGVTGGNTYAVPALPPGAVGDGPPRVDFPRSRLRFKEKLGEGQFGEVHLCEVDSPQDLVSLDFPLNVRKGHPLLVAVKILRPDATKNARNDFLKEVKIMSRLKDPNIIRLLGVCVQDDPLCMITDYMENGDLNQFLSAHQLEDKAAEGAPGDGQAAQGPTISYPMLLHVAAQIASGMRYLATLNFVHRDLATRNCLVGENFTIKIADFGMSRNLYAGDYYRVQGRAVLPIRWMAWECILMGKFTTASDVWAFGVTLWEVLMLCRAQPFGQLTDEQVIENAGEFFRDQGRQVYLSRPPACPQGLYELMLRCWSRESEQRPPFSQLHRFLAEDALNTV
// remaining binding at 1 µM lookup, one value per entry
# number only, unit % dropped from output

Guide cases for remaining binding at 1 µM, answers given:
> print(dat)
                                   molecule              quantity.name  measure.unit  reading
1  Cc1cnc(S(C)(=O)=O)nc1N1CCCC(n2nc(-c3ccc(Oc4ccccc4)cc3)c3c(N)ncnc32)C1 (centres unmarked) [Compound 8a]  remaining binding at 1 µM             %       83
2  CNC(=O)c1cnc(S(C)(=O)=O)nc1N1CCCC(n2nc(-c3ccc(Oc4ccccc4)cc3)c3c(N)ncnc32)C1 (centres unmarked) [Compound 8d]  remaining binding at 1 µM             %       64
3  COC(=O)c1cnc(S(C)(=O)=O)nc1N1CCCC(n2nc(-c3ccc(Oc4ccccc4)cc3)c3c(N)ncnc32)C1 (centres unmarked) [Compound 8b]  remaining binding at 1 µM             %       60

Name the reported remaining binding at 1 µM value associated with the molecule C=CC(=O)N1CCC[C@@H](n2nc(-c3ccc(Oc4ccccc4)cc3)c3c(N)ncnc32)C1 [Compound 1g, Ibrutinib, reference compound]
78

Same for CCOC(=O)c1cnc(S(C)(=O)=O)nc1N1CCC[C@@H](n2nc(-c3ccc(Oc4ccccc4)cc3)c3c(N)ncnc32)C1 [Compound 8c]
64

----------
biological target: BRK (Homo sapiens, UniProt Q13882); construct: purchased Eurofins DiscoverX KINOMEscan (scanTK); test: KINOMEscan ScanTK; type: binding; conditions: @1000nM, read-out: %Control
Sequence (Q13882 whole entry): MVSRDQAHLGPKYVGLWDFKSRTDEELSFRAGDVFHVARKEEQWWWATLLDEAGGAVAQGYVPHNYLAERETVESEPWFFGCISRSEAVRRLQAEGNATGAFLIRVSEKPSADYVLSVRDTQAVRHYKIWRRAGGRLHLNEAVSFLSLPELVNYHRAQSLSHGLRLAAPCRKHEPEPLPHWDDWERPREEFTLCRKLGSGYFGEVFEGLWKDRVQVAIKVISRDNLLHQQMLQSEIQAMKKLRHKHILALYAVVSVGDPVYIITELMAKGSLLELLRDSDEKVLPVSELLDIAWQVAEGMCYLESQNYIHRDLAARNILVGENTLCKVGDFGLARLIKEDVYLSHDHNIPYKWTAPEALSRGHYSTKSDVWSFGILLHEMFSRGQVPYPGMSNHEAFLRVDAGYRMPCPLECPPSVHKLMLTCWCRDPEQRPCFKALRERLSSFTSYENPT
# remaining binding at 1 µM per record follows
Quick reminder: number only, in %, skip the unit.

Guide cases for remaining binding at 1 µM, answers given:
> print(dat)
                                   compound  measure.unit  reading
1  Cc1cnc(S(C)(=O)=O)nc1N1CCCC(n2nc(-c3ccc(Oc4ccccc4)cc3)c3c(N)ncnc32)C1 (centres unmarked)             %       15
2  C=CC(=O)N1CCC[C@@H](n2nc(-c3ccc(Oc4ccccc4)cc3)c3c(N)ncnc32)C1 [Compound 1g, Ibrutinib, reference compound]             %      1.3
3  CNC(=O)c1cnc(S(C)(=O)=O)nc1N1CCCC(n2nc(-c3ccc(Oc4ccccc4)cc3)c3c(N)ncnc32)C1 (centres unmarked)             %       15

Given the entry COC(=O)c1cnc(S(C)(=O)=O)nc1N1CCCC(n2nc(-c3ccc(Oc4ccccc4)cc3)c3c(N)ncnc32)C1 (centres unmarked) , report its measured remaining binding at 1 µM.
42

Next record, please: CCOC(=O)c1cnc(S(C)(=O)=O)nc1N1CCC[C@@H](n2nc(-c3ccc(Oc4ccccc4)cc3)c3c(N)ncnc32)C1
54

----------
molecular target: FLT3-autoinhibited (Homo sapiens, UniProt P36888); construct: purchased Eurofins DiscoverX KINOMEscan (scanTK); experiment: KINOMEscan ScanTK; format: binding; settings: @1000nM
Sequence (P36888 27-993): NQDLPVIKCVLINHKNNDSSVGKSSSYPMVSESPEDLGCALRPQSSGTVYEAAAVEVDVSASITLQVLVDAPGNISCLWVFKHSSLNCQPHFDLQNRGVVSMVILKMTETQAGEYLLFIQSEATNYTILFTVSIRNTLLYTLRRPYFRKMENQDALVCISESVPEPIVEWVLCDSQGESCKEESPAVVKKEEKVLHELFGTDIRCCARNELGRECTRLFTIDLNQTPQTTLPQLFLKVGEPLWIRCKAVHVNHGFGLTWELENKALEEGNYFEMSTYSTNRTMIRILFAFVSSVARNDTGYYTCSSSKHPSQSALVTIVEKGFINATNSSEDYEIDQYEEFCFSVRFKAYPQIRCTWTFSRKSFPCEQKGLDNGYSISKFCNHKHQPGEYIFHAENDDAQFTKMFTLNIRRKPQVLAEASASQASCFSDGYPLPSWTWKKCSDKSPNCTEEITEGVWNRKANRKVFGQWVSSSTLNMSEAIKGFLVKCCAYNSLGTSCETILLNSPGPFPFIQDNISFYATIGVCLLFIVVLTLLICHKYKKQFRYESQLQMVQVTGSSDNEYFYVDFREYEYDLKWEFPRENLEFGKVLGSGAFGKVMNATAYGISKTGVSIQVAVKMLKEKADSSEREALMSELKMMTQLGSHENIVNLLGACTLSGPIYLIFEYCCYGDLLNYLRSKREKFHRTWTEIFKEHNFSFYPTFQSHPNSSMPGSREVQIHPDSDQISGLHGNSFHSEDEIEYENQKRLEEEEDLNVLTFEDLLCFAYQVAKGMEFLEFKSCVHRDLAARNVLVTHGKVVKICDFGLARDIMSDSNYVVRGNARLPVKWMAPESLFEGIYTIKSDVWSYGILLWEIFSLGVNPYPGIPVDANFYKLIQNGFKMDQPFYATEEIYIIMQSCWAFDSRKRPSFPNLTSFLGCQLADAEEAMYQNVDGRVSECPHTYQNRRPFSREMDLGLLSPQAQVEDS
Measured difference in %Control vs compound Ib at 1 µM accompanies every entry in the list below.
Kindly answer with a numeric value in %, unit omitted.

Before answering, review these 2 worked examples.
> print(dat)
                                   compound                             system.tested  measure.unit  reading
1  CNC(=O)c1cnc(S(C)(=O)=O)nc1N1CCCC(n2nc(-c3ccc(Oc4ccccc4)cc3)c3c(N)ncnc32)C1 (stereo not shown) [Compound 8d]  FLT3-autoinhibited (Homo sapiens, UniProt P36888)             %        3
2  Cc1cnc(S(C)(=O)=O)nc1N1CCCC(n2nc(-c3ccc(Oc4ccccc4)cc3)c3c(N)ncnc32)C1 (stereo not shown) [Compound 8a]  FLT3-autoinhibited (Homo sapiens, UniProt P36888)             %      -18

Which difference in %Control vs compound Ib at 1 µM value belongs to CCOC(=O)c1cnc(S(C)(=O)=O)nc1N1CCC[C@@H](n2nc(-c3ccc(Oc4ccccc4)cc3)c3c(N)ncnc32)C1 [Compound 8c] ?
3

Now give it for COC(=O)c1cnc(S(C)(=O)=O)nc1N1CCCC(n2nc(-c3ccc(Oc4ccccc4)cc3)c3c(N)ncnc32)C1 (stereo not shown) [Compound 8b] too.
-7
